Assign TGI to each entry below.
# System: MALME-3M melanoma
# Procedure Text: NCI tumour cell line growth inhibition, 48 h

TGI recorded for this molecule, CNC(=O)N(CCC#N)CCN(C(=O)NC)c1ccccc1 , is > 100 µM

Reported TGI of COc1cc2c3c(n(CCCN4CCNCC4)c(=O)c2cc1OC)-c1cc2c(cc1C3=O)OCO2 : 12.2 µM

Field TGI (entry Cc1ncc([N+](=O)[O-])n1CC[N+](C)([O-])CCCCn1ccnc1[N+](=O)[O-] (configuration not stated) ) reads > 100 µM

GET /value?item= C[C@@H](N)COc1ccc(-c2cnc3ccc(N[C@H](C)c4cccc(F)c4)nn23)cc1 &field=TGI returns 2.62 µM

According to the records, this molecule Cn1cnc(N2CCCC2)c(C#N)c1=S displays TGI of > 100 µM

Record Fc1cc(F)c(F)c(S)c1F . Reported TGI: > 100 µM

// TGI value for ClCCCSSCCCCl : > 100 µM

Documented TGI of COC(=O)[C@H]1COC(=S)N1C(=O)[C@@H](C)[C@H](O)C(C)C : > 100 µM

Per the records, this molecule ( CC1=C/C=C/C(=O)O[C@@H]([C@H](C)[C@H](O)[C@@H](C)NC(=O)C(C)C)[C@H](C)/C=C/C(C)=C/[C@H]2C=CCC[C@@]2(C)\C=C\1 ) has TGI equal to 8.4 µM

Record CCc1ccccc1NC(=O)C(C#N)C1=C(Cl)C(=O)c2ccccc2C1=O (configuration not stated) . Reported TGI: 19.5 µM

TGI reading for Oc1c(CN2CCCC2)ccc2cccnc12 : > 100 µM

Reported TGI ( CC1=NN(C(=O)Cc2ccccc2)C(=O)/C1=C\c1ccc([N+](=O)[O-])cc1 ) = > 100 µM

For COc1ccc2nc3c([N+](=O)[O-])ccc(NCCN(C)C)c3c(N)c2c1 the molecule record lists TGI as 3.14 µM

Noted for Cc1ccccc1C1=C(c2cn(C)c3ccccc23)C(=O)NC1=O : its TGI reads > 25 µM

Briefly, TGI measured for C[C@H](c1ccc(F)cc1CCCC(=O)O)N(c1cc(F)ccc1F)S(=O)(=O)c1ccc(Cl)cc1 : 93.8 µM

response.value for O=P(O)(O)c1ccc(-c2ccc(I)cc2)cc1 (field: TGI) = > 100 µM

The reported value for Cc1nn(C(=O)c2ccccc2O)c2c1C(c1ccc(O)cc1O)SC(N)=N2 (configuration not stated) in terms of TGI is > 10 µM

Sample CC(C)(C)COC(=O)C(C)(C)NC(=O)C(CC(=O)OCc1ccccc1)NC(=O)OCc1ccccc1 (configuration not stated) ; TGI observed: 81.3 µM

Reported TGI ( COc1cccc2c1NC(=O)Cc1c-2[nH]c2ccccc12 ) = > 100 µM

The recorded TGI for entry CCC(=O)Nc1cccc(N=Cc2ccc(OC(=O)/C=C\c3ccccc3)cc2)c1 equals > 75 µM

Measured TGI, O=C(COc1ccccc1Cl)N1N=C(c2ccccc2)CC1(O)c1ccccc1 (configuration not stated) : 31.7 µM

Memo: COC(=O)Oc1nn(C(=O)OC)c(=O)c2ccccc12 , reported TGI: > 100 µM

Memo: Cc1ccc([Se](=C(C(=O)c2ccccc2)C(=O)c2ccccc2)c2ccc(C)cc2)cc1 , reported TGI: 50.3 µM

Reported TGI ( COc1cc(C2c3cc4c(cc3OC(NNc3ccccc3)C2C)OCO4)cc(OC)c1OC (configuration not stated) ) = > 38.5 µM

Sample Cn1c2ccc(F)cc2c2ccc3c(c21)C(=O)C=CC3=O ; TGI observed: 23.2 µM

Per the record, CC1CCC2C(C)C(=O)OC3OC4(C)CCC1C32OO4 (configuration not stated) has TGI of > 100 µM

response.value for CC(C)C(Nc1ncnc2nc[nH]c12)C(=O)O (configuration not stated) (field: TGI) = > 100 µM

TGI reported for this molecule OCC1OC2c3ccccc3COC2C1OCc1ccccc1 (configuration not stated) : > 100 µM

Per the records, this molecule ( CN(C)C1CCN(Cc2ccc(NC(=O)c3cncc(C#Cc4cnc(N)c5ncccc45)c3)cc2C(F)(F)F)CC1 ) has TGI equal to 1.65 µM

Reported TGI for N#Cc1c(N)oc(-c2ccc([N+](=O)[O-])cc2)c1C#N was 95.9 µM

Consider COc1ccc2c(c1)CC[C@@H]1C2CC[C@]2(C)C(=O)N(CCN(C)C)C(=O)CC12 (some centres not stated) . Its measured TGI is > 100 µM

[O-]/N=[N+](/[O-])C1CCCCC1=[N+]1CCOCC1 (configuration not stated) has a reported TGI of > 100 µM

Recorded result, O=c1cc(-c2ccccc2)[nH]c2ncccc12 , TGI: > 100 µM

For COC(=O)Nc1nc2ccc(S(=O)(=O)Nc3ccccn3)cc2[nH]1 the molecule record lists TGI as > 100 µM

CNS(=O)(=O)OCC1OC(n2cnc3cncnc32)C(O)C1O (configuration not stated) has a reported TGI of > 100 µM

TGI reading for O=C(CN1CCN(Cc2ccccc2Cl)CC1)NC1CC(=O)c2c(Br)sc(Br)c21 (configuration not stated) : 43.8 µM

TGI for CN(C)CN1CSC(=S)N(CN(C)C)C1 is > 100 µM

Reported TGI for O=C(CCBr)N1CCN(C(=O)CCBr)CC1 was 206 µM

Please fill in: TGI reported for Fc1ccc(-c2sc(-c3ccsc3)cc2Cc2ccsc2)cc1 = > 10 µM

For record CC(=O)C(=O)NC1/C=C(C)\C=C/C(O)C/C=C(C)\C=C/C(O)CC2OC(=O)C1(C)C(=O)C2C (configuration not stated) the listed TGI is > 100 µM

Item: O=C(Cc1nc2ccc(C(=O)c3ccccc3)cc2[nH]c1=O)C(=O)Nc1nc2ccccc2[nH]1 | TGI: > 100 µM

CN1CCN(C(=O)[C@@]2(C)CC[C@]3(C)CC[C@]4(C)C(=CC[C@@H]5[C@@]6(C)CCC(=O)NC(C)(C)[C@@H]6CC[C@]54C)[C@@H]3C2)CC1 has a reported TGI of 2.82 µM
